# measured_target: human orexin 1 receptor (Homo sapiens)
# method: Calcium accumulation in cells (FLIPR), antagonism of orexin A, human orexin 1 receptor
# condition_set: calcium accumulation, antagonism of orexin A, Cheng-Prusoff corrected; read-out: FLIPR hOx1R Ki
Property: pKi; scope: individual compounds
Please treat pKi as minus the base-10 logarithm of the molar concentration.

> print(dat)
                                   compound  value.observed
1  Cn1ccc2c(CN3C(=O)COCC34CCN(c3cnc5ccccc5n3)CC4)cccc21            6.58
2  Cc1cc(C)nc(N2CCC3(CC2)NCCN(Cc2nn(C)cc2-c2cccc(C(C)C)c2)C3=O)n1            6.02
3  COc1cccc(-c2nn(C)nc2CN2CCC3(CCN(c4nc(C)cc(OC)n4)C3)C2=O)c1 (stereo not shown)            7.54

Now consider the entry below.
So, O=C1N(Cc2ccccc2-c2ccccc2)CCC12CCN(c1nc3ccccc3[nH]1)CC2 ? Its pKi was 6.46

---

# measured_target: human orexin 1 receptor (Homo sapiens, UniProt O43613)
# Sequence (O43613 whole entry): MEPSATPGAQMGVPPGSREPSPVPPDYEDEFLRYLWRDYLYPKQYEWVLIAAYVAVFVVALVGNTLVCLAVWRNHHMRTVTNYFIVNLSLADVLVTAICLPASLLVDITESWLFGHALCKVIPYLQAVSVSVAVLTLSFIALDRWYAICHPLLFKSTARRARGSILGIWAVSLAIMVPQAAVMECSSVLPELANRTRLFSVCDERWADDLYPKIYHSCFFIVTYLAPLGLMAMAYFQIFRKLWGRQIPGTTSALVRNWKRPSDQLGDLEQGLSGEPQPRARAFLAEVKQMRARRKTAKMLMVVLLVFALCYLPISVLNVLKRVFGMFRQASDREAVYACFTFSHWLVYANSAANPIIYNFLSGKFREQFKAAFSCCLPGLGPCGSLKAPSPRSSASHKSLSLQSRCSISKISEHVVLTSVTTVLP
# method: Calcium accumulation in cells (FLIPR), antagonism of orexin A, human orexin 1 receptor
# condition_set: calcium accumulation, antagonism of orexin A, Cheng-Prusoff corrected; read-out: FLIPR hOx1R Ki
Quick reference for log10 Ki among some compounds
Please keep in mind that the values are log10 of Ki expressed in nM.

> print(dat)
                                   compound  value.observed
1  O=C1N(Cc2c[nH]c3ccccc23)CCC12CCCN(c1cnc3ccccc3n1)C2 (stereo not drawn)            3.05

// recorded log10 Ki for COc1ccnc(N2CCC3(CCCN(Cc4ccccc4-c4nc(C)no4)C3=O)C2)n1 (stereo not drawn) : 2.99

Form field log10 Ki, entry CCC(=O)c1cccc(-c2cn(C)nc2CN2CCNC3(CCN(c4nc(C)cc(C)n4)CC3)C2=O)c1 : 2.93

Lab book: log10 Ki of Cc1cc(C)nc(N2CCC3(CC2)OCCN(Cc2conc2-c2ccccc2)C3=O)n1 noted as 3.07

Looking up Cc1cc(C)nc(N2CCC3(CC2)OCCN(Cc2nn(C)cc2-c2ccccc2)C3=O)n1 , I see its log10 Ki listed as 3.37

Value of log10 Ki reported for the compound COc1cc(C)nc(N2CCC3(CCCN(Cc4c[nH]c5ccccc45)C3=O)C2)n1 (stereo not drawn) is 1.49

---

# measured_target: human orexin 2 receptor (Homo sapiens)
# Construct: expressed in transfected cells
# Sequence (O43614 whole entry): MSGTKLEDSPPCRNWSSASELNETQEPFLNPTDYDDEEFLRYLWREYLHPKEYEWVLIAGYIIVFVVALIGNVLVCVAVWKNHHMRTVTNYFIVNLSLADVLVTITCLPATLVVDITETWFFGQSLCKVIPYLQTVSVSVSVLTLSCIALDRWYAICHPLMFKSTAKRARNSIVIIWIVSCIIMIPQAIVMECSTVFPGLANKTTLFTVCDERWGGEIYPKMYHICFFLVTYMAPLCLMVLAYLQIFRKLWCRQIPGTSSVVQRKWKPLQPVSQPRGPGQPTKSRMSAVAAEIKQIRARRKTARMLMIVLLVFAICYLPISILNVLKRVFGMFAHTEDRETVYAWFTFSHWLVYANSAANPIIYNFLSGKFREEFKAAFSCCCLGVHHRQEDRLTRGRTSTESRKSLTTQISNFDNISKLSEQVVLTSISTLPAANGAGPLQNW
# method: Calcium accumulation in cells (FLIPR), antagonism of orexin A, human orexin 2 receptor
# Assay type: cell-based
# condition_set: calcium accumulation, antagonism of orexin A, Cheng-Prusoff corrected; read-out: FLIPR hOx2R Ki
readout_kind: pKi
Just the number, please; pKi means minus log10 of the concentration in mol/L.

response.value for Cc1cc(C)nc(N2CCC3(CC2)NCCN(Cc2nn(C)cc2-c2cccc(C(C)C)c2)C3=O)n1 (field: pKi) = 8.40

Kindly note the recorded pKi for Cc1ccnc(N2CCC3(CC2)OCCN(Cc2c[nH]c4ccccc24)C3=O)n1 , which is 6.98

pKi measured on Cc1cc(C)nc(N2CCC3(CC2)NCCN(Cc2nn(C)cc2-c2cccc(OC4CC4)c2)C3=O)n1 = 9.00

Consider Cc1ccc(C)c(CN2C(=O)OCC23CCN(c2cnc4ccccc4n2)CC3)c1 . Its measured pKi is 7.85
